Quick reference for α-helix among some molecules
# Procedure text: Circular dichroism, estimate of secondary structure
# Type: physicochemical
# Conditions used: CD, 100 µM peptide in water, principal component regression analysis
Non-standard residues stand in square brackets, D forms with d. Residues, ends and D or L forms follow the SMILES beside them. Dip = N[C@H](C(=O)O)C(c1ccccc1)c1ccccc1
Readout label: α-helix

* N=C(N)NCCC[C@@H]1NC(=O)[C@H](Cc2c[nH]c3ccccc23)NC(=O)[C@H](CCCNC(=N)N)NC(=O)[C@H](C(c2ccccc2)c2ccccc2)NC(=O)[C@H](CCCNC(=N)N)NC(=O)[C@H](C(c2ccccc2)c2ccccc2)NC(=O)[C@H](CCCNC(=N)N)NC(=O)[C@H](C(c2ccccc2)c2ccccc2)NC(=O)[C@H](CCCNC(=N)N)NC(=O)[C@H](Cc2c[nH]c3ccccc23)NC1=O [[(DipR)3(WR)2]] (cyclo([Dip]R[Dip]R[Dip]RWRWR)) | 13.1%
* N=C(N)NCCC[C@@H]1NC(=O)[C@H](C(c2ccccc2)c2ccccc2)NC(=O)[C@H](CCCNC(=N)N)NC(=O)[C@H](C(c2ccccc2)c2ccccc2)NC(=O)[C@H](CCCNC(=N)N)NC(=O)[C@H](C(c2ccccc2)c2ccccc2)NC(=O)[C@H](CCCNC(=N)N)NC(=O)[C@H](C(c2ccccc2)c2ccccc2)NC(=O)[C@H](CCCNC(=N)N)NC(=O)[C@H](C(c2ccccc2)c2ccccc2)NC1=O [[DipR]5] (cyclo([Dip]R[Dip]R[Dip]R[Dip]R[Dip]R)) | 21.4%
* N=C(N)NCCC[C@@H]1NC(=O)[C@H](Cc2c[nH]c3ccccc23)NC(=O)[C@H](CCCNC(=N)N)NC(=O)[C@H](C(c2ccccc2)c2ccccc2)NC(=O)[C@H](CCCNC(=N)N)NC(=O)[C@H](C(c2ccccc2)c2ccccc2)NC(=O)[C@H](CCCNC(=N)N)NC(=O)[C@H](C(c2ccccc2)c2ccccc2)NC(=O)[C@H](CCCNC(=N)N)NC(=O)[C@H](C(c2ccccc2)c2ccccc2)NC1=O [[(DipR)4(WR)]] (cyclo([Dip]R[Dip]R[Dip]R[Dip]RWR)) | 8.6%
* N=C(N)NCCC[C@@H]1NC(=O)[C@H](Cc2c[nH]c3ccccc23)NC(=O)[C@H](CCCNC(=N)N)NC(=O)[C@H](Cc2c[nH]c3ccccc23)NC(=O)[C@H](CCCNC(=N)N)NC(=O)[C@H](C(c2ccccc2)c2ccccc2)NC(=O)[C@H](CCCNC(=N)N)NC(=O)[C@H](Cc2c[nH]c3ccccc23)NC(=O)[C@H](CCCNC(=N)N)NC(=O)[C@H](Cc2c[nH]c3ccccc23)NC1=O [[(DipR)(WR)4]] | 28.9%
* N=C(N)NCCC[C@@H]1NC(=O)[C@H](Cc2c[nH]c3ccccc23)NC(=O)[C@H](CCCNC(=N)N)NC(=O)[C@H](Cc2c[nH]c3ccccc23)NC(=O)[C@H](CCCNC(=N)N)NC(=O)[C@H](C(c2ccccc2)c2ccccc2)NC(=O)[C@H](CCCNC(=N)N)NC(=O)[C@H](C(c2ccccc2)c2ccccc2)NC(=O)[C@H](CCCNC(=N)N)NC(=O)[C@H](Cc2c[nH]c3ccccc23)NC1=O [[(DipR)2(WR)3]] (cyclo([Dip]R[Dip]RWRWRWR)) | 20.8%

// provenance: paper PMC8997995
